# procedure details: NCI Yeast Anticancer Drug Screen. Data for the rad50 strain (AID 155);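 further: 0% = growth of vehicle-only cultures of the same strain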
# particulars: S. cerevisiae rad50 strain growth inhibition; at 50.0 µM; stronger effect = higher value
This is part of a sample that, as a whole, favours compounds with a hit. Of some 79,000 tested, about 15% had one in any assay.
measured parameter: growth inhibition (%)
Give just the numeric value; % need not be written.

Problem: Give a short answer stating reported growth inhibition for O=C1C=C(NCCCCC2CCCCC2)c2ccccc2C1=O .
Solution: 11.8

Problem: Give a short answer stating reported growth inhibition for CC(=O)Nc1ccc2oc(=O)ccc2c1 .
Solution: -19.2

Problem: Give a short answer stating reported growth inhibition for O=C(CC(C(=O)c1ccsc1)c1cccs1)c1cccs1 (configuration not stated) .
Solution: 50.9

Problem: Give a short answer stating reported growth inhibition for CC1(C(=O)O)CCCCCCC1O (configuration not stated) .
Solution: 10.2

Problem: Give a short answer stating reported growth inhibition for Cc1ccccc1C=O .
Solution: -2.75

Problem: Give a short answer stating reported growth inhibition for Clc1nc(N2CCOCC2)nc(N2CCOCC2)n1 .
Solution: -9.5

Problem: Give a short answer stating reported growth inhibition for O=c1cc(-c2cccs2)ss1 .
Solution: 18.4

Problem: Give a short answer stating reported growth inhibition for CCC(=O)Oc1ccc(C(C)(C)C)cc1 .
Solution: -5.85

Problem: Give a short answer stating reported growth inhibition for COC1=C(c2c[nH]c3ccc(CC=C(C)C)cc23)C(=O)C(OC)=C(c2c[nH]c3ccc(CC=C(C)C)cc23)C1=O .
Solution: 30.5

Problem: Give a short answer stating reported growth inhibition for COc1ccccc1NC(=O)C1=C(C)NC(C)=C(C(=O)Nc2ccccc2OC)C1c1cccc2ccccc12 .
Solution: 28.4

Problem: Give a short answer stating reported growth inhibition for Cc1ccc(S(=O)(=O)OC(CI)C2OC(c3ccccc3)OC3COC(c4ccccc4)OC32)cc1 (configuration not stated) .
Solution: 0.25

Problem: Give a short answer stating reported growth inhibition for Cc1c(Cl)cccc1NC(=O)Oc1ccccc1Cc1ccccc1 .
Solution: -0.8

---

# procedure details: NCI Yeast Anticancer Drug Screen. Data for the mec2-1 strain (AID 157)
# particulars: S. cerevisiae mec2-1 strain, at 50.0 µM, stronger effect = higher value
About 79,000 compounds went through this panel and 15% of them were active in at least one assay; those are over-represented in the sample as a whole.
measured parameter: growth inhibition (%)
Give just the numeric value; % need not be written.

Problem: Give a short answer stating reported growth inhibition for O=[N+]([O-])C1CCC(N=Nc2c(O)ccc3ccccc23)CC1 (configuration not stated) .
Solution: 3.6

Problem: Give a short answer stating reported growth inhibition for COc1cccc(C2c3cc4c(cc3OC(C)(OC)C2C)OCO4)c1 (configuration not stated) .
Solution: 22.8

Problem: Give a short answer stating reported growth inhibition for S=c1[nH]nc2nc3c4ccccc4c4ccccc4c3nn12 .
Solution: 22.8

Problem: Give a short answer stating reported growth inhibition for CCOc1ccc(Cc2ccc3c(c2)OCO3)cc1C .
Solution: -13.3

Problem: Give a short answer stating reported growth inhibition for COc1cc(OC)c2cnc(Cl)cc2c1 .
Solution: -9.1

Problem: Give a short answer stating reported growth inhibition for NOCc1ccc(OCc2ccccc2)cc1 .
Solution: 7.3

Problem: Give a short answer stating reported growth inhibition for CCOc1ccc(C(=O)OC(C)C)cc1 .
Solution: 4.15

Problem: Give a short answer stating reported growth inhibition for NC(=O)C(Cc1ccccc1)NC(=O)C1CCCN1 (configuration not stated) .
Solution: 1.35

Problem: Give a short answer stating reported growth inhibition for COC(=O)/C=C/c1ccc(OC(C)=O)c(OC)c1 .
Solution: 3.55

Problem: Give a short answer stating reported growth inhibition for CN1C(=O)CNS1(=O)=O .
Solution: 9.6

Problem: Give a short answer stating reported growth inhibition for C=C1C(=O)OC2/C=C(\C)CC/C=C(/C=O)C(OC(=O)C(C)C)C(O)C12 (configuration not stated) .
Solution: -55.4

Problem: Give a short answer stating reported growth inhibition for CN(C)CCNC(=O)c1cccc2c(Nc3ccc(S(N)(=O)=O)cc3)c3ccccc3nc12 .
Solution: 4

Problem: Give a short answer stating reported growth inhibition for CC(C(=O)C(=O)Nc1ccc(Cl)cc1)C(=O)c1ccc(Cl)cc1 (configuration not stated) .
Solution: -7.15

Problem: Give a short answer stating reported growth inhibition for C/C(CC(=O)Nc1ccc(NC(=O)C/C(C)=N\NC(N)=O)cc1)=N/NC(N)=O .
Solution: -23.9

Problem: Give a short answer stating reported growth inhibition for C/C(=N\Sc1cccc([N+](=O)[O-])c1)c1ccccc1O .
Solution: 96.5

Problem: Give a short answer stating reported growth inhibition for COC(=O)C(CCCCNC(=O)OCc1ccccc1)NC(=O)c1ccc(N(C)C=O)cc1 (configuration not stated) .
Solution: 19.7

Problem: Give a short answer stating reported growth inhibition for O=c1oc2ccccc2c(=O)n1O .
Solution: 10.3

Problem: Give a short answer stating reported growth inhibition for O=c1cc(-c2ccccc2)nc(/C=C(\O)c2ccncc2)n1-c1ccccc1 .
Solution: -18.9

Problem: Give a short answer stating reported growth inhibition for O=C(Nc1cc(Cl)c(Cl)cc1Cl)Nc1cc(Cl)ccc1Oc1ccc(Cl)cc1S(=O)(=O)O .
Solution: 99.3

Problem: Give a short answer stating reported growth inhibition for Cc1ccc(S(=O)(=O)OCCN(CCO)c2cn(C(c3ccccc3)(c3ccccc3)c3ccccc3)c(=O)n(C(c3ccccc3)(c3ccccc3)c3ccccc3)c2=O)cc1 .
Solution: 17.8

Problem: Give a short answer stating reported growth inhibition for CCOC(=O)C12CCCC1(O)N(NC(=O)OC(C)(C)C)C(C)=C2C(=O)OC (configuration not stated) .
Solution: 15.1

Problem: Give a short answer stating reported growth inhibition for O=C(NC1CCCN1C(=O)/C=C\c1ccccc1)OCc1ccccc1 (configuration not stated) .
Solution: -4.95

Problem: Give a short answer stating reported growth inhibition for Cc1c(C2CCC(=O)C2)c2ccccc2n1C (configuration not stated) .
Solution: -23.3

Problem: Give a short answer stating reported growth inhibition for O=[N+]([O-])c1ccc(C(O)(C#CCN2CCCC2)c2ccccc2)cc1 (configuration not stated) .
Solution: 11.9

Problem: Give a short answer stating reported growth inhibition for O=[N+]([O-])c1ccc(Oc2ccc3ccccc3c2)c([N+](=O)[O-])c1 .
Solution: -17.9

Problem: Give a short answer stating reported growth inhibition for COc1cc2c(-c3cc(OC)c(OC)c(OC)c3)cc(C)[n+](C)c2cc1OC .
Solution: -9.2

Problem: Give a short answer stating reported growth inhibition for CC(=O)Nc1ccccc1NC1CC(C)N(c2ccccc2)N1C(C)=O (configuration not stated) .
Solution: -42.4

Problem: Give a short answer stating reported growth inhibition for C/C(NN(C)C)=C(\C#N)C(=O)/C=C/c1cccs1 .
Solution: 1.75

Problem: Give a short answer stating reported growth inhibition for CCC(Cl)(c1ccccc1)C(O)C(=O)OC(C)C (configuration not stated) .
Solution: 2.65

Problem: Give a short answer stating reported growth inhibition for CCCCCCCC/C=C/CCCCCCCC(=O)NN(C)C .
Solution: -7.6

Problem: Give a short answer stating reported growth inhibition for CC(=O)Nc1ccc(/C=N/Nc2ccccc2)cc1 .
Solution: 98.8

Problem: Give a short answer stating reported growth inhibition for NC(CCCCn1nnc2c(=O)[nH]cnc21)C(=O)O (configuration not stated) .
Solution: -26.2

Problem: Give a short answer stating reported growth inhibition for N/N=C/c1ccc2ccccc2n1 .
Solution: -12.6

Problem: Give a short answer stating reported growth inhibition for O=[N+]([O-])c1cccc(OCC2CO2)c1 (configuration not stated) .
Solution: -23.8

Problem: Give a short answer stating reported growth inhibition for Nc1nc(N)c2[nH]cnc2n1 (tested in a mixture with another compound) .
Solution: -17.1

Problem: Give a short answer stating reported growth inhibition for CCCCCC(=O)Oc1ccccc1OC .
Solution: -5.55

Problem: Give a short answer stating reported growth inhibition for CCCCCCCCCO .
Solution: -4.8

Problem: Give a short answer stating reported growth inhibition for CCCCCCC(=O)/C=C/c1cccc(OCc2ccccc2)c1 .
Solution: 3.8

Problem: Give a short answer stating reported growth inhibition for CC(NC(=O)CCl)c1ccccc1 (configuration not stated) .
Solution: -12.2

Problem: Give a short answer stating reported growth inhibition for Cc1cc(Cl)ccc1NC(=O)C1C(=O)N(c2ccc(Cl)cc2C)C(=O)/C1=N\NC(N)=S (configuration not stated) .
Solution: -6.6

Problem: Give a short answer stating reported growth inhibition for CC1=CC(=O)N(n2c(-c3ccccc3)n[nH]c2=O)C1=O .
Solution: -12.9

Problem: Give a short answer stating reported growth inhibition for O=C(O)c1ccc(NC(=S)Nc2ccc(C(=O)O)cc2)cc1 .
Solution: -0.15

Problem: Give a short answer stating reported growth inhibition for CCOc1nc2ccc(N)cc2s1 .
Solution: -9.55

Problem: Give a short answer stating reported growth inhibition for CCCCCCCCCCCCCCCCS(=O)(=O)N/N=C/c1ccc2c(c1)OCO2 .
Solution: 3

Problem: Give a short answer stating reported growth inhibition for COc1ccc(C(=O)c2cc(S(=O)(=O)O)c(OC)cc2O)c(O)c1 .
Solution: -35.4

Problem: Give a short answer stating reported growth inhibition for CCN(CC)CCC(CCN(CC)CC)(COC(=O)c1ccc([N+](=O)[O-])cc1)c1ccccc1 .
Solution: 9.1

Problem: Give a short answer stating reported growth inhibition for CCc1ccc2c(c1)C(C)(CC)CCC2C (configuration not stated) .
Solution: -6.5
